FYI, the data here is from patent US20060069123A1.

The following compounds each carry a recorded log10 IC50 for CCR2 (Homo sapiens, UniProt P41597).
Short version: log10 scale, IC50, nM.

Answered examples (4):
                                   compound  recorded_number
0  O=C(O)C(C1CCN(C(=O)/C=C/c2cc(F)c(F)c(F)c2)CC1)N1CCC(Cc2c[nH]c3ccccc23)CC1 (centres unmarked)             2.61
1  O=C(O)C(C1CCN(C(=O)/C=C/c2cccc(C(F)(F)F)c2)CC1)N1CCC(c2c[nH]c3ccccc23)CC1 (centres unmarked)             0.90
2  COC(=O)c1ccc(NC(=O)N2CCC(C(C(=O)O)N3CCC(c4c[nH]c5ccccc45)CC3)CC2)cc1 (centres unmarked)             3.55
3  COc1ccc(C2CCN(C(CO)C3CCN(C(=O)/C=C/c4ccccc4)CC3)CC2)cc1 (centres unmarked)             2.43

Lookup: Request the reported log10 IC50 associated with O=C(O)C(C1CCN(C(=O)/C=C/c2cccs2)CC1)N1CCC(c2c[nH]c3ccccc23)CC1 (centres unmarked)
Found: 1.85

---

# SYSTEM TESTED: UniProt P41597
Listed here: items and their measured pIC50.
Expect pIC50 as a plain number equal to -log10 of the molar concentration.

Answered examples (3):
>>> print(df.to_string())
                                   molecule  recorded_number
0  O=C(/C=C/c1cc(F)cc(F)c1)N1CCC(C(CO)N2CCC(c3ccc(Cl)cc3)CC2)CC1 (stereo not drawn)             7.70
1  CCNC(=O)NCC(C1CCN(C(=O)/C=C/c2ccc(F)c(Br)c2)CC1)N1CCC(c2c[nH]c3ccccc23)CC1 (stereo not drawn)             6.18
2  Cc1cc(C)cc(NC(=O)N2CCC(C(C(=O)O)N3CCC(c4c[nH]c5ccccc45)CC3)CC2)c1 (stereo not drawn)             6.03

Lookup: GET /values?readout=pIC50&system=UniProt P41597&item= COc1ccc2[nH]cc(C3CCN(C(C(=O)O)C4CCN(C(=O)/C=C/c5ccc(Cl)c(Cl)c5)CC4)CC3)c2c1 (stereo not drawn)
Found: 8.00

Lookup: GET /values?readout=pIC50&system=UniProt P41597&item= O=C(/C=C/c1ccc(Cl)c(Cl)c1)N1CCC(C(CO)N2CCC(c3c[nH]c4ccccc34)CC2)CC1 (stereo not drawn)
Found: 9.70

Lookup: GET /values?readout=pIC50&system=UniProt P41597&item= COc1ccc(C2CCN(C(CO)C3CCN(C(=O)Nc4ccc(F)c(F)c4)CC3)CC2)cc1 (stereo not drawn)
Found: 6.47

Lookup: GET /values?readout=pIC50&system=UniProt P41597&item= O=C(/C=C/c1ccc(Cl)c(Cl)c1)N1CCC(C(CO)N2CCC(c3ccncc3)CC2)CC1 (stereo not drawn)
Found: 6.08

Lookup: GET /values?readout=pIC50&system=UniProt P41597&item= O=C(O)C(C1CCN(C(=O)/C=C/c2ccc(Cl)c(Cl)c2)CC1)N1CCC(c2ccc(Cl)cc2)CC1 (stereo not drawn)
Found: 6.60

Lookup: GET /values?readout=pIC50&system=UniProt P41597&item= O=C(O)C(C1CCN(C(=O)Nc2ccc(F)c(F)c2F)CC1)N1CCC(c2c[nH]c3ccccc23)CC1 (stereo not drawn)
Found: 5.77
